- test.details: physchem
- Type: physicochemical
- condition.context: pH 7.4, saline or isotonic, thermodynamic from solid
property.name: solubility (µg/mL)
Give bare numbers, in µg/mL.

Short answer for `[2H]C([2H])([2H])OC(=O)N/C=C/CCCc1cc([O-])c(C(=O)/C(C)=C/c2cnc(Oc3ccc(F)cc3)s2)c(=O)o1.[Na+]` : solubility was 5000

###

- test.details: physchem
- Assay type: physicochemical
- condition.context: 37 °C, pH 7.4, aqueous buffer, kinetic from dmso stock
property.name: solubility at 2 h (µg/mL)
One number for each entry, in µg/mL.

Short answer for [2H]C([2H])([2H])OC(=O)N/C=C/CCCc1cc(O)c(C(=O)/C(C)=C/c2cnc(Oc3ccc(F)cc3)s2)c(=O)o1 [Example 8] : solubility at 2 h was 100
